// reported GI50 per item
Tested on: A375 cells (malignant melanoma)
Assay: Inhibition of cancer cell proliferation, A375 (CellTiterGlo, 72 hours)
Assay type: cell-based
Conditions: Homo sapiens, A-375
Outcome measure: GI50

>>> value_reported("C=CC(=O)Nc1cc(C)ccc1Nc1nc(Nc2cc(OC)nc(N3CCN(C(C)=O)CC3)c2)ncc1C(F)(F)F")
"< 100 nM"
>>> value_reported("C=CC(=O)Nc1ccccc1Nc1nc(Nc2cc(C(N)=O)ccc2OC)ncc1C(F)(F)F")
"< 100 nM"
>>> value_reported("C=CC(=O)Nc1cc(OC)ccc1Nc1nc(Nc2cc(OC)nc(N3CCN(C(C)=O)CC3)c2)ncc1C(F)(F)F")
"< 100 nM"
>>> value_reported("C=CC(=O)Nc1cc(C)ccc1Nc1nc(Nc2nc(OC)ncc2C)ncc1C(F)(F)F")
"< 100 nM"
>>> value_reported("C=CC(=O)Nc1cc(Cl)ccc1Nc1nc(Nc2cc(OC)ncc2C)ncc1Cl")
"501 to 999 nM"
>>> value_reported("C=CC(=O)Nc1cc(CN2CCN(S(C)(=O)=O)CC2)ccc1Nc1nc(Nc2cc(OC)ncc2C)ncc1C(F)(F)F")
"< 100 nM"
>>> value_reported("C=CC(=O)Nc1cc(C)c(F)cc1Nc1nc(Nc2nc(OC)ncc2Cl)ncc1C(F)(F)F")
"< 100 nM"
>>> value_reported("C=CC(=O)Nc1cc(C)ccc1Nc1nc(Nc2cc(OC)cnc2Cl)ncc1C(F)(F)F")
"101 to 500 nM"
>>> value_reported("C=CC(=O)Nc1ccccc1Nc1nc(N[C@H]2CCCN(C(=O)CO)C2)ncc1Cl")
"< 100 nM"
>>> value_reported("C=CC(=O)Nc1ccccc1Nc1nc(Nc2cc(OC)nc(N3CCS(=O)(=O)CC3)c2)ncc1C(F)(F)F")
"< 100 nM"
>>> value_reported("C=CC(=O)Nc1cc(C)ccc1Nc1nc(Nc2cc(N[C@H]3CC[C@](C)(O)CC3)nc(OC)c2)ncc1C(F)(F)F")
"< 100 nM"
>>> value_reported("C=CC(=O)Nc1cc(C)ccc1Nc1nc(Nc2cc(NCCOC)nc(OC)c2)ncc1C(F)(F)F")
"< 100 nM"
>>> value_reported("CC(=O)N1CCC[C@H](Nc2ncc(C(F)(F)F)c(N[C@H]3[C@@H](C(N)=O)[C@@H]4C=C[C@H]3C4)n2)C1")
"101 to 500 nM"
>>> value_reported("C=CC(=O)Nc1ccccc1Nc1nc(Nc2ccnnc2)ncc1C(F)(F)F")
"< 100 nM"
>>> value_reported("C=CC(=O)Nc1cc(OC)ccc1Nc1nc(Nc2cc(OC)ncc2C)ncc1C(F)(F)F")
"< 100 nM"

###

Target: MEK1 activated ERK1 (Homo sapiens, UniProt P27361)
Construct: purchased Millipore (Billerica, Mass.) 14-439-K
Sequence (P27361 whole entry): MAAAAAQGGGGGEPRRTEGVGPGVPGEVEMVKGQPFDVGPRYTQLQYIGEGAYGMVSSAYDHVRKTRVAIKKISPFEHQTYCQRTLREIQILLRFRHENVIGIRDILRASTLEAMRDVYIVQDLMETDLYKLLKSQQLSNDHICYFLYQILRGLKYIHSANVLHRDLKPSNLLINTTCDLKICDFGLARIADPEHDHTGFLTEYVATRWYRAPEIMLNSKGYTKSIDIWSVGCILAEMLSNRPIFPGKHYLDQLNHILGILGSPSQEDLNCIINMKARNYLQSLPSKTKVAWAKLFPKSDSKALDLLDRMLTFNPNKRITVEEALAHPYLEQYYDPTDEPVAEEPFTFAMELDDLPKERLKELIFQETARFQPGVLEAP
Assay: Omnia continuous-read kinase assay for potency against MEK1 activated ERK1
Format: biochemical
Settings: MEK1 activated ERK1, ATP at KM; read-out: ERK1 Omnia WT ATP KM IC50
Outcome measure: IC50

>>> value_reported("C=CC(=O)Nc1ccccc1Nc1nc(Nc2cc(OC)ncc2C)ncc1C(F)(F)F")
"< 100 nM"
>>> value_reported("C=CC(=O)Nc1ccccc1Nc1nc(Nc2cc(C(N)=O)ccn2)ncc1C(F)(F)F")
"101 to 500 nM"
>>> value_reported("C=CC(=O)Nc1ccccc1Nc1nc(N[C@@H]2CCC[C@H](C(=O)NOC)C2)ncc1Cl (racemic)")
"101 to 500 nM"
>>> value_reported("C=CC(=O)Nc1ccccc1Nc1nc(Nc2ccc(N3CCC[C@@H]3C(N)=O)cc2C#N)ncc1Cl")
"101 to 500 nM"

###

Target: MEK1 activated ERK1 (Homo sapiens, UniProt P27361)
Construct: purchased Millipore (Billerica, Mass.) 14-439-K
Test: Omnia continuous-read kinase assay for potency against MEK1 activated ERK1
Type: biochemical
Settings: ATP at KM, WT
pIC50: −log10 of the molar value.
// reported pIC50 per item
Outcome measure: pIC50

>>> value_reported("C=CC(=O)Nc1cc(C)ccc1Nc1nc(NC2COC2)ncc1C(F)(F)F")
"< 6.00"
>>> value_reported("C=CC(=O)Nc1cc(C)ccc1Nc1nc(Nc2ncc(C(F)(F)F)c(OC)n2)ncc1C(F)(F)F")
"6.30 to 7.00"
>>> value_reported("C=CC(=O)Nc1c(Nc2nc(Nc3cc(OC)ncc3C)ncc2C(F)(F)F)ccc(C)c1F")
"6.30 to 7.00"
>>> value_reported("C=CC(=O)Nc1cc(OCC(N)=O)ccc1Nc1nc(Nc2cc(OC)ncc2C)ncc1C(F)(F)F")
"> 7.00"
>>> value_reported("C=CC(=O)Nc1cc(C)ccc1Nc1nc(Nc2cc(OC)nnc2OC)ncc1C(F)(F)F")
"6.00 to 6.30"
>>> value_reported("C=CC(=O)Nc1cc(C)ccc1Nc1nc(Nc2nc(OC)nc(OC)n2)ncc1C(F)(F)F")
"6.30 to 7.00"
>>> value_reported("C=CC(=O)Nc1cc(CN2CCN(C(=O)CO)CC2)ccc1Nc1nc(Nc2cc(OC)ncc2C)ncc1C(F)(F)F")
"> 7.00"
>>> value_reported("C=CC(=O)Nc1cc(OCCN)ccc1Nc1nc(Nc2cc(OC)ncc2C)ncc1C(F)(F)F")
"> 7.00"
>>> value_reported("C=CC(=O)Nc1cc(C(=O)N2CCN(S(C)(=O)=O)CC2)ccc1Nc1nc(Nc2cc(OC)ncc2C)ncc1C(F)(F)F")
"6.30 to 7.00"
>>> value_reported("C=CC(=O)Nc1cc(C)ccc1Nc1nc(Nc2nc(OC)ncc2C)ncc1C(F)(F)F")
"> 7.00"
>>> value_reported("C=CC(=O)Nc1cc(OCC(=O)N2CCN(C(C)=O)CC2)ccc1Nc1nc(Nc2cc(OC)ncc2OC)ncc1C(F)(F)F")
"> 7.00"
>>> value_reported("C=CC(=O)Nc1cc(C)ccc1Nc1nc(Nc2cc(OCC)ncc2C)ncc1C(F)(F)F")
"6.30 to 7.00"
>>> value_reported("C=CC(=O)Nc1cc(OC(C)(C)C(N)=O)ccc1Nc1nc(Nc2cc(OC)ncc2C)ncc1C(F)(F)F")
"> 7.00"
>>> value_reported("C=CC(=O)Nc1cc(C)ccc1Nc1nc(Nc2cc(C(=O)NC)nn2C)ncc1C(F)(F)F")
"< 6.00"
>>> value_reported("C=CC(=O)Nc1cc(O[C@H](C)C(N)=O)ccc1Nc1nc(Nc2cc(OC)ncc2C)ncc1C(F)(F)F")
"> 7.00"

###

Target: MEK1 activated ERK1 (Homo sapiens, UniProt P27361)
Construct: purchased Millipore (Billerica, Mass.) 14-439-K
Test: Omnia continuous-read kinase assay for potency against MEK1 activated ERK1
Type: biochemical
Settings: ATP at KM, WT
pIC50: −log10 of the molar value.
// reported pIC50 per item
Outcome measure: pIC50

>>> value_reported("C=CC(=O)Nc1cc(C)ccc1Nc1nc(Nc2cc(-c3nc[nH]n3)ccc2C)ncc1C(F)(F)F")
"< 6.00"
>>> value_reported("C=CC(=O)Nc1cc(CN2CCN(C(C)=O)C[C@@H]2C)ccc1Nc1nc(Nc2cc(OC)ncc2C)ncc1C(F)(F)F")
"> 7.00"
>>> value_reported("C=CC(=O)Nc1cc(CN2CCN(S(C)(=O)=O)CC2)ccc1Nc1nc(Nc2nc(OC)ncc2C)ncc1C(F)(F)F")
"6.30 to 7.00"
>>> value_reported("C=CC(=O)Nc1cc(CN2CCN(S(C)(=O)=O)CC2)ccc1Nc1nc(Nc2cc(OC)ncc2C)ncc1C(F)(F)F")
"> 7.00"
>>> value_reported("C=CC(=O)Nc1cc(C)ccc1Nc1nc(Nc2cnc(OC)cc2C)ncc1C(F)(F)F")
"6.00 to 6.30"
>>> value_reported("C=CC(=O)Nc1cc(CN2CCN(C(=O)CO)CC2)ccc1Nc1nc(Nc2nc(OC)ncc2C)ncc1C(F)(F)F")
"6.00 to 6.30"
>>> value_reported("C=CC(=O)Nc1cc(CN2CCN(C(=O)c3ccccn3)CC2)ccc1Nc1nc(Nc2nc(OC)ncc2C)ncc1C(F)(F)F")
"6.30 to 7.00"
>>> value_reported("C=CC(=O)Nc1cc(C)c(C#N)cc1Nc1nc(NC2CCOCC2)ncc1C(F)(F)F")
"< 6.00"
>>> value_reported("C=CC(=O)Nc1cc(C)ccc1Nc1nc(Nc2cc(OC(C)C)ncc2C)ncc1C(F)(F)F")
"< 6.00"
>>> value_reported("C=CC(=O)Nc1cc(C)ccc1Nc1nc(Nc2cc(C(=O)OC)nn2C)ncc1C(F)(F)F")
"6.30 to 7.00"
>>> value_reported("C=CC(=O)Nc1cc(O[C@@H](C)C(=O)N2CCN(S(C)(=O)=O)CC2)ccc1Nc1nc(Nc2cc(OC)ncc2C)ncc1C(F)(F)F")
"6.00 to 6.30"

###

System: ERK1/2 phosphorylation of p90RSK in HCT116 cells
Test: Detection of total and phospho-RSK by MSD ELISA (HCT116)
Type: cell-based
Settings: Homo sapiens, HCT-116, read-out: ERK1/ERK2 PRSK HCT116 EC50
pEC50: −log10 of the molar value.
// reported pEC50 per item
Outcome measure: pEC50

>>> value_reported("C=CC(=O)Nc1cc(CN2CCOCC2)ccc1Nc1nc(Nc2cc(OC)ncc2C)ncc1C(F)(F)F")
"6.30 to 7.00"
>>> value_reported("C=CC(=O)Nc1cc(C)ccc1Nc1nc(Nc2nc(OC)ncc2Cl)ncc1C(F)(F)F")
"6.30 to 7.00"
>>> value_reported("C=CC(=O)Nc1cc(C)ccc1Nc1nc(Nc2cc(OC)cc(OC)c2)ncc1C(F)(F)F")
"6.30 to 7.00"
>>> value_reported("C=CC(=O)Nc1cc(C(=O)N2CCN(S(C)(=O)=O)CC2)ccc1Nc1nc(Nc2cc(OC)ncc2C)ncc1C(F)(F)F")
"6.30 to 7.00"
>>> value_reported("C=CC(=O)Nc1cc(C)ccc1Nc1nc(NCC2COC2)ncc1C(F)(F)F")
"< 6.00"
>>> value_reported("C=CC(=O)Nc1cc(C)ccc1Nc1nc(Nc2cc(OC)ccc2C)ncc1C(F)(F)F")
"< 6.00"
>>> value_reported("C=CC(=O)Nc1cc(C)ccc1Nc1nc(Nc2cc(OC)nnc2OC)ncc1C(F)(F)F")
"6.30 to 7.00"
>>> value_reported("C=CC(=O)Nc1cc(C)ccc1Nc1nc(Nc2ncc(C(F)(F)F)c(OC)n2)ncc1C(F)(F)F")
"6.30 to 7.00"
>>> value_reported("C=CC(=O)Nc1ccccc1Nc1nc(Nc2cc(F)ccc2C)ncc1C(F)(F)F")
"< 6.00"
>>> value_reported("C=CC(=O)Nc1cc(CCC(N)=O)ccc1Nc1nc(Nc2cc(OC)ncc2C)ncc1C(F)(F)F")
"> 7.00"
>>> value_reported("C=CC(=O)Nc1c(Nc2nc(Nc3cc(OC)ncc3C)ncc2OC)cccc1OCc1nccs1")
"< 6.00"

The measurements presented in this section are drawn from patent US9561228B2.
